Test system: TK-10 renal
Assay: NCI tumour cell line growth inhibition, 48 h
The reader will find reported TGI values listed item by item below.

# compound, TGI
measured = [
    ("Nc1ncc2c(n1)-c1ccccc1OC2N1CCCC1 (stereo unspecified)", "> 100 µM"),
    ("COc1cc(/C=C2\\CCCCC3=C2N=C2SC(C)=CN2C3c2cc(OC)c(OC)c(OC)c2)cc(OC)c1OC (stereo unspecified)", "> 100 µM"),
    ("CCOc1ccc(OCC(=O)O)c2c1CCCC2=O", "> 100 µM"),
    ("CC[C@@H]1NC(C(=O)OC)Cc2c1[nH]c1ccccc21 (stereo partly specified)", "> 100 µM"),
    ("Nc1ncnc2c1ccn2C/C=C/CO", "> 100 µM"),
    ("O=S(=O)(OI(OI(OS(=O)(=O)C(F)(F)F)c1ccccc1)c1ccccc1)C(F)(F)F", "> 100 µM"),
    ("CCOc1c(OC)cc(-c2nc3n(n2)C(=O)C(CC)S3)cc1OC (stereo unspecified)", "> 10 µM"),
    ("CO[C@@H]1CC[C@]2(C)OC[C@H](C)[C@@H]3C[C@@H](C)[C@@H](OC(C)=O)[C@@H]4[C@H]3[C@@H]2O[C@H]4C[C@@]1(C)O", "> 100 µM"),
    ("O=C(Nc1nc(-c2c[nH]c3ccccc23)cs1)c1n[nH]c(=O)c2ccccc12", "> 100 µM"),
    ("C/C(=N\\NC(N)=O)c1sc(-c2nc(C)c(/C(C)=N/NC(N)=O)s2)nc1C", "> 100 µM"),
    ("C[C@@H]1CCC2[C@@H](C)[C@@H](O[C@H]3O[C@@H]4O[C@@]5(C)CCC6[C@H](C)CCC([C@H]3C)[C@]64OO5)O[C@@H]3O[C@@]4(C)CCC1[C@@]23OO4 (stereo partly specified)", "> 25 µM"),
]

====

The following compounds are listed with their measured TGI values.
Test system: HCT-15 colon
Assay: NCI tumour cell line growth inhibition, 48 h

# compound, TGI
data = [
    ("CCSc1nc(N=Cc2ccccc2O)c2cn[nH]c2n1", "> 100 µM"),
    ("COc1cc2c(cc1OCCCN1C(=O)c3cccc4cccc(c34)C1=O)N=C[C@@H]1CCCN1C2=O", "> 77.9 µM"),
    ("CCOc1c(OC)cc(-c2nc3n(n2)C(=O)C(CC)S3)cc1OC (stereo not drawn)", "> 10 µM"),
]

====

Test system: HOP-62 NSCLC
Assay: NCI tumour cell line growth inhibition, 48 h

# sample-smiles, measured-target, TGI
records = [
    ("CC(C)(CO)CNc1nc(N)nc(Cl)c1/C=N/O", "HOP-62 NSCLC", "> 100 µM"),
    ("Cc1nc2sccn2c1-c1nc2sccn2c1/C=C1/C(=O)Nc2ccccc21", "HOP-62 NSCLC", "> 100 µM"),
    ("CCN(CC)c1ccc(/C=C/c2ccnc3ccccc23)cc1", "HOP-62 NSCLC", "> 100 µM"),
]

====

Tested on: SNB-75 CNS
Test: NCI tumour cell line growth inhibition, 48 h
measured-property: GI50

# sample-smiles, measured-property, recorded-result
data = [
    ("NC(N)=Nc1nc2ccccc2o1", "GI50", "> 100 µM"),
    ("Cc1cccc(NC2=C(Cl)C(=O)c3nc(C)ccc3C2=O)c1", "GI50", "2.73 µM"),
    ("CN(Cc1cnc2nc(N)nc(N)c2n1)c1ccc(C(=O)N[C@@H](CCS(=O)(=O)O)C(=O)O)cc1", "GI50", "18.2 µM"),
]
